The following compounds are listed with their measured MIC values.
- Test system: Proteus vulgaris
- Measurement Notes: Antibacterial activity against Bacillus proteus ATCC 8427 assessed as reduction in bacterial cell growth incubated for overnight by two-fold serial dilution method
- Type: functional
Measurement Name: MIC (µg/mL)

Compound: Cl.O=C1CCc2c(cccc2N2CCN(CC(O)CNc3ccccc3Cl)CC2)N1 (racemic)
Value Measured: 64
--
Compound: Cl.O=C1CCc2c(cccc2N2CCN(CC(O)CN3CCNCC3)CC2)N1 (racemic)
Value Measured: 256
--
Compound: CCCCNCC(O)CN1CCN(c2cccc3c2CCC(=O)N3)CC1.Cl (racemic)
Value Measured: 256
--
Compound: COc1ccc(NCC(O)CN2CCN(c3cccc4c3CCC(=O)N4)CC2)cc1.Cl (racemic)
Value Measured: 256
--
Compound: Cl.O=C1CCc2c(cccc2N2CCN(CC(O)CN3CCCCC3)CC2)N1 (racemic)
Value Measured: 256
--
Compound: Cl.O=C1CCc2c(cccc2N2CCN(CC(O)CNCc3ccc(Cl)cc3)CC2)N1 (racemic)
Value Measured: 128
--
Compound: CN[C@@H]1[C@H](O[C@H]2[C@H](O[C@H]3[C@H](O)[C@@H](O)[C@H](N=C(N)N)[C@@H](O)[C@@H]3N=C(N)N)O[C@@H](C)[C@]2(O)C=O)O[C@@H](CO)[C@H](O)[C@H]1O.CN[C@@H]1[C@H](O[C@H]2[C@H](O[C@H]3[C@H](O)[C@@H](O)[C@H](N=C(N)N)[C@@H](O)[C@@H]3N=C(N)N)O[C@@H](C)[C@]2(O)C=O)O[C@@H](CO)[C@H](O)[C@H]1O.O=S(=O)(O)O.O=S(=O)(O)O.O=S(=O)(O)O [STREPTOMYCIN SULFATE]
Value Measured: 16

* * *

Recorded measurements of MIC, one per entry
- System: Proteus vulgaris
- Measurement Notes: Antibacterial activity against Bacillus proteus ATCC 8427 assessed as reduction in bacterial cell growth incubated for overnight by two-fold serial dilution method
- Format: functional

Molecule: Cl.O=C1CCc2c(cccc2N2CCN(CC(O)CNc3ccc(Cl)cc3)CC2)N1 (racemic)
MIC: 128 µg/mL
--
Molecule: Cl.O=C1CCc2c(cccc2N2CCN(C[C@@H](O)CNc3ccc(Br)cc3)CC2)N1
MIC: 128 µg/mL
--
Molecule: Cl.O=C1CCc2c(cccc2N2CCN(C[C@H](O)CNc3ccc(Cl)cc3)CC2)N1
MIC: 128 µg/mL
--
Molecule: Cl.O=C1CCc2c(cccc2N2CCN(CC(O)Cn3cnnc3)CC2)N1 (racemic)
MIC: 64 µg/mL
--
Molecule: CCCCNC[C@H](O)CN1CCN(c2cccc3c2CCC(=O)N3)CC1.Cl
MIC: 256 µg/mL
--
Molecule: Cl.O=C1CCc2c(cccc2N2CCN(CC(O)CN3CCOCC3)CC2)N1 (racemic)
MIC: 128 µg/mL
--
Molecule: Cl.O=C1CCc2c(cccc2N2CCN(C[C@H](O)CNc3ccccc3)CC2)N1
MIC: 128 µg/mL
--
Molecule: Cl.O=C1CCc2c(cccc2N2CCN(CC(O)CN3CCCCCC3)CC2)N1 (racemic)
MIC: 256 µg/mL
--
Molecule: Cc1cccc(C)c1NCC(O)CN1CCN(c2cccc3c2CCC(=O)N3)CC1.Cl (racemic)
MIC: 128 µg/mL

* * *

- Tested on: Escherichia coli
- Measurement Notes: Antibacterial activity against Escherichia coli JM109 assessed as reduction in bacterial cell growth incubated for overnight by two-fold serial dilution method
- Type: functional
Reported MIC values are given for each entry in this list.

Compound: Cl.O=C1CCc2c(cccc2N2CCN(CC(O)CNCc3ccccc3)CC2)N1 (racemic)
Tgt: Escherichia coli
Units Of Measure: µg/mL
MIC: 256
--
Compound: Cl.O=C1CCc2c(cccc2N2CCN(CC(O)CN(CCO)CCO)CC2)N1 (racemic)
Tgt: Escherichia coli
Units Of Measure: µg/mL
MIC: 256
--
Compound: CC(C)(C)NCC(O)CN1CCN(c2cccc3c2CCC(=O)N3)CC1.Cl (racemic)
Tgt: Escherichia coli
Units Of Measure: µg/mL
MIC: 256
--
Compound: Cl.O=C1CCc2c(cccc2N2CCN(CC(O)Cn3ccnc3)CC2)N1 (racemic)
Tgt: Escherichia coli
Units Of Measure: µg/mL
MIC: 128
--
Compound: CCN(CC)CC(O)CN1CCN(c2cccc3c2CCC(=O)N3)CC1.Cl (racemic)
Tgt: Escherichia coli
Units Of Measure: µg/mL
MIC: 512
--
Compound: Cl.O=C1CCc2c(cccc2N2CCN(C[C@@H](O)CNc3ccc(Br)cc3)CC2)N1
Tgt: Escherichia coli
Units Of Measure: µg/mL
MIC: 256
--
Compound: Cl.O=C1CCc2c(cccc2N2CCN(CC(O)CNCc3ccc(Cl)cc3)CC2)N1 (racemic)
Tgt: Escherichia coli
Units Of Measure: µg/mL
MIC: 256
--
Compound: Cl.O=C1CCc2c(cccc2N2CCN(C[C@H](O)CNc3ccc(Br)cc3)CC2)N1
Tgt: Escherichia coli
Units Of Measure: µg/mL
MIC: 128
--
Compound: Cl.O=C1CCc2c(cccc2N2CCN(C[C@H](O)CNc3ccccc3)CC2)N1
Tgt: Escherichia coli
Units Of Measure: µg/mL
MIC: 256
--
Compound: Cl.O=C1CCc2c(cccc2N2CCN(CC(O)CNc3ccc(Br)cc3)CC2)N1 (racemic)
Tgt: Escherichia coli
Units Of Measure: µg/mL
MIC: 256
